Tested on: bloodstream-form trypanosome T. brucei brucei 427 strain
PROTOCOL_NOTES: Trypanosoma brucei brucei high-throughput in vitro drug sensitivity assay (resazurin)
Assay type: cell-based
TEST_PARAMETERS: T. b. brucei vs L929
MEASURED_PARAMETER: Selectivity Index (L929 IC50 / T. b. brucei IC50)

Q. Tell me measured Selectivity Index (L929 IC50 / T. b. brucei IC50) for O=C(Nc1ccc2c(c1)B(O)OC21CCCC1)c1ccccc1Cl [compound 137] please.
A. >3

Q. Name the recorded Selectivity Index (L929 IC50 / T. b. brucei IC50) of the item CC(C)CC1OB(O)c2cc(NC(=O)c3ccccc3C(F)(F)F)ccc21 (stereo not drawn) [compound 22] in your answer.
A. >12

Q. In one line, give reported Selectivity Index (L929 IC50 / T. b. brucei IC50) of the entry CC1OB(O)c2cc(NC(=O)c3cccc(Cl)c3)ccc21 (stereo not drawn) [compound 11] .
A. 168

The origin of these recorded values is patent US20110190235A1.
